Origin of values: patent US20230343467A1

System: HCC1500
Assay: In vitro potency (IC50) of Palbociclib on breast cancer cell line
Format: cell-based
Details: Homo sapiens, read-out: Observed IC50
Source text: Palbociclib, a targeted inhibitor of CDK4/6 indicated for breast cancer. Identification of Human Breast Cancer cell lines sensitive and resistant to Palbociclib using the method 300 for drug discovery and development, particularly for identification, selection and validation of Human Cancer Cell lines and Biomarkers based on Pharmacological Target(s). A comparison of Predicted Efficacy with Observed Efficacy in cell lines/patients is provided. […]
assay.metric: IC50 (nM)
Report as a plain number; the unit nM is understood.

Returns the measured IC50 for the input compound. Input: CC(=O)c1c(C)c2cnc(Nc3ccc(N4CCNCC4)cn3)nc2n(C2CCCC2)c1=O
45
